target: T1, cynomolgus monkey BCMA (cynomolgus monkey, UniProt A0A2K5UD97 1-53); assay: SPR, IgG on chip, cyBCMA analyte, 37C
T1 construct: Soluble analyte in SPR; construct not described; also called cyBCMA; Cyno BCMA
T1 sequence (A0A2K5UD97 entry or part of it): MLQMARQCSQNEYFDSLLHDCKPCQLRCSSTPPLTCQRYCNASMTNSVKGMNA
reported_endpoint: Kd

[[record]]
binder = "L3.PY/L3.KY/H2.LT (antibody, V domains shown, IgG) VH: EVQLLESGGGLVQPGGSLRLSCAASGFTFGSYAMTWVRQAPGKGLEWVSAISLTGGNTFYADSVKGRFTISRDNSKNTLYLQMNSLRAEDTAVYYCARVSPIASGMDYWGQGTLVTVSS VL: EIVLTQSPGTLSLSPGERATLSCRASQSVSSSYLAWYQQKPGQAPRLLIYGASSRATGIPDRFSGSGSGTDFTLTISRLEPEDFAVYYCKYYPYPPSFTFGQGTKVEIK"
reported_endpoint = "Kd"
result = "1.27 nM"

[[record]]
binder = "L3.PY/L3.KY/H3.TAQ (antibody, V domains shown, IgG) VH: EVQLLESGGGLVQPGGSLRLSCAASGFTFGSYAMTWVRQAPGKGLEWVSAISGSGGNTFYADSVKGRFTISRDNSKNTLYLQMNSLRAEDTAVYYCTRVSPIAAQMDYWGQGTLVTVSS VL: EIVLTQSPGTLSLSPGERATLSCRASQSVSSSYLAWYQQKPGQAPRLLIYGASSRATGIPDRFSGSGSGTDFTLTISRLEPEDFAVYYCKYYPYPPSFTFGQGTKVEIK"
reported_endpoint = "Kd"
result = "1.06 nM"

[[record]]
binder = "L3.PY/L1.PH/H2.QR (antibody, V domains shown, IgG) VH: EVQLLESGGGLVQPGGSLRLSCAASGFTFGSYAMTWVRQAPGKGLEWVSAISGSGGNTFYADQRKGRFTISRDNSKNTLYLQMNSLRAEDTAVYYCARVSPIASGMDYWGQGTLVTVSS VL: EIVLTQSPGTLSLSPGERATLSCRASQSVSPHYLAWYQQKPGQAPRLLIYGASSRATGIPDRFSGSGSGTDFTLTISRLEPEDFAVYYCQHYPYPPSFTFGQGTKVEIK"
reported_endpoint = "Kd"
result = "1.8 nM"

